system: ncRNAs (SEQ ID NO 28-89); experiment: ncRNA arrays of melanocytes, keratinocytes, normal skin, melanoma cell lines and patient samples; set-up: species or system human; settings: melanoma patient 2 sample compared to normal skin
Where ncRNA array expression, patient 2 equals or exceeds -2, the correct label is 1 (yes); where it does not, the label is 0 (no).

SEQ ID NO 75 (CAAGTGGGAAGAAAAAGAGCCCTACGTGGTGACATTCTGGAAGGATATCATGGATGATTG; listed as DNA, chemistry not given here; listed as Homo sapiens)    1 (yes)
SEQ ID NO 79 (GTGTGTACTGATGTCAAAGACCAAATGGATGCCCCTGTGGCCAACAGTACCTTGTTAAAC; listed as DNA, chemistry not given here; listed as Homo sapiens)    1 (yes)
SEQ ID NO 50 (GTTATTATAACCAATGCAGACTTTAAAATCCCACCTGGACATCGGGTGAGAGGAGGAGGG; listed as DNA, chemistry not given here; listed as Homo sapiens)    0 (no)

Kindly consider the entry below.
Item SEQ ID NO 67 (TTCCCTATTCCATCCTTTGATGGGTGGCCTGTTACACGTTTGGAAATAAAAACAAGTGGG; listed as DNA, chemistry not given here; listed as Homo sapiens) with ncRNA array expression, patient 2 of -2 or above?
1 (yes)

Measured values drawn from patent US20110143948A1 for this set.
